- experimental_system: AF9 (Homo sapiens)
- measurement_protocol: OctetRed Bio-Layer Interferometry binding to immobilized AF9
- reported_conditions: OctetRed BLI; read-out: binding affinity (KD), steady state analysis
- Sequence (P42568 whole entry): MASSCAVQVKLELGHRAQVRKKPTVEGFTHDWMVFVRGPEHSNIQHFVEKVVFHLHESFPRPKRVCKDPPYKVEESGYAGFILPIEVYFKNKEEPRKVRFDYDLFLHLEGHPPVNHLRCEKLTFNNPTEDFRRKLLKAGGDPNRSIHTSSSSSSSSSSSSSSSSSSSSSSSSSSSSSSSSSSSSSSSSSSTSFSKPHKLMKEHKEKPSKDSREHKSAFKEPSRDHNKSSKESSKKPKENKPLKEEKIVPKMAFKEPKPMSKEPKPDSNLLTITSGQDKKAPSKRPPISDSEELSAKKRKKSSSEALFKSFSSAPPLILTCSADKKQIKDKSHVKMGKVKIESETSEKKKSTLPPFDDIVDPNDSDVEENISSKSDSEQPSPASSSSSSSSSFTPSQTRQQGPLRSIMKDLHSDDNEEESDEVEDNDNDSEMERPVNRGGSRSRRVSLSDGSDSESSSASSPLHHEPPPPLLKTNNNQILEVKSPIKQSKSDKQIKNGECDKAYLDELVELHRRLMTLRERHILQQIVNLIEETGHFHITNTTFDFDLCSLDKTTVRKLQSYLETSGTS
measured_parameter: Kd

1. CCc1ccc(S(=O)(=O)N2c3ccccc3NC3=C(C(=O)CCC3)C2c2ccco2)cc1 (racemic)    35 µM

====

- experimental_system: AF9 (Homo sapiens)
- measurement_protocol: Optimized competitive FP binding assay (N-Flu-DOT1L / AF9)
- Sequence (P42568 497-568): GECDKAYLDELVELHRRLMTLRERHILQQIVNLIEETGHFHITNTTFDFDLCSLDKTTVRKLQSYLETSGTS
pKi: −log10 of the molar value. Where a SMILES comes first, the peptide text is derived from it.
The entries below are paired with their reported pKi.
measured_parameter: pKi

1) CC[C@H](C)[C@H](NC(=O)[C@@H]1CCCN1C(=O)[C@H](CC(C)C)NC(C)=O)C(=O)N[C@@H](CO)C(=O)N[C@H](C(=O)N1CCC[C@H]1C(=O)N[C@@H](CC(C)C)C(=O)N[C@@H](CO)C(=O)N[C@@H](C)C(=O)N[C@H](C(N)=O)C(C)C)[C@@H](C)CC [Compound T873A] (Ac-LPISIPLSAV-NH2)    6.69
2) CC[C@H](C)[C@H](NC(=O)[C@@H]1CCCN1C(=O)[C@H](CC(C)C)NC(C)=O)C(=O)N[C@@H](CO)C(=O)N[C@H](C(=O)N1CCC[C@H]1C(=O)N[C@@H](CC(C)C)C(=O)N[C@@H](CO)C(=O)N[C@H](C(=O)N[C@H](C(=O)N[C@@H](CCC(N)=O)C(=O)N1CCC[C@H]1C(=O)N[C@@H](CC(N)=O)C(=O)N[C@@H](CCCCN)C(=O)N[C@@H](CC(C)C)C(=O)N1CCC[C@H]1C(N)=O)C(C)C)[C@@H](C)O)[C@@H](C)CC [DOT1L 16 mer] (Ac-LPISIPLSTVQPNKLP-NH2)    7.10
3) CC[C@H](C)[C@H](NC(=O)[C@@H]1CCCN1C(=O)[C@H](CC(C)C)NC(C)=O)C(=O)N[C@@H](CO)C(=O)N[C@H](C(=O)N1CCC[C@H]1C(=O)N[C@@H](CC(C)C)C(=O)N[C@@H](CO)C(=O)N[C@H](C(=O)N[C@H](C(N)=O)C(C)C)[C@@H](C)O)[C@@H](C)CC [DOT1L 10mer] (Ac-LPISIPLSTV-NH2)    7.17
